- protocol_details: folding enthalpy; higher = less favourable; fluorescence melt of hairpins on a sequencing array, two-state fit
- reported_conditions: sodium 0.088 M
endpoint_label: folding enthalpy

Worked examples follow.
macromolecule_sequence: GCTGTGCGAAAGCGCTGC ((.(.((....)).).))
folding enthalpy: -25.6 kcal/mol

macromolecule_sequence: GATCGGTCTTCCGATC ((((((....))))))
folding enthalpy: -37.2 kcal/mol

macromolecule_sequence: GCACTCACGAAAGTGTGC (((..(((....))))))
folding enthalpy: -23 kcal/mol

macromolecule_sequence: GCTGGTGGAAACACTGGC ((..(((....)))..))
folding enthalpy: -30.1 kcal/mol

macromolecule_sequence: GATGCAGGAAACTGTATC (((.(((....))).)))
folding enthalpy: -33.5 kcal/mol

macromolecule_sequence: GCTGCGCGAAAGCTTAGC (((..((....))..)))
folding enthalpy: -20.5 kcal/mol

macromolecule_sequence: GCTAGTGGAAACACCAGC (((.(((....))).)))
folding enthalpy: -23.6 kcal/mol

macromolecule_sequence: GTAGTAGGAAACCACTAC (((((.(....).)))))
folding enthalpy: -28.9 kcal/mol

macromolecule_sequence: GTTTACCGAAAGGTAAC (((.(((....))))))
folding enthalpy: -12.7 kcal/mol

macromolecule_sequence: GCCTGGGGAAACCCAGAC (.(((((....))))).)
folding enthalpy: -14.1 kcal/mol

Read the next record carefully.
For GTCGAGGGAAACCTCAAC ((.((((....)))).)) the sequence record lists folding enthalpy as -18.1 kcal/mol

----------
- protocol_details: melting temperature; fluorescence melt of hairpins on a sequencing array, two-state fit, raised by 9.35 °C to match UV melts
- reported_conditions: sodium 0.088 M
Overview of recorded Tm for various sequences
Quick note: give the figure in °C, leave out the unit.

macromolecule_sequence: GATTACGAAAGTATATC ((((((....))).)))
Tm, °C: 32.9

macromolecule_sequence: GAAAATGGAAACGTTTTC (((((.(....).)))))
Tm, °C: 37.8

For GCCAAGACGAAAGTCGGC (((..(((....)))))) the sequence record lists Tm as 54.6

For GGGAAGCGAAAGCTCCC (((.(((....)))))) the sequence record lists Tm as 59.7

For GATCGCTCCCGCGATC ((((((....)))))) the sequence record lists Tm as 67.8

For GCGCCTGGAAACGGGTGC ((.((.(....).)).)) the sequence record lists Tm as 52.3

For GCCTCCGAAAGGACTGGC ((((((....)))..))) the sequence record lists Tm as 44.4

For GTTCACGGAAACGTGGAC ((.((((....)))).)) the sequence record lists Tm as 52.8

For GTGGTCCCGAAAGGGCAC (((..(((....)))))) the sequence record lists Tm as 42.5

For GATCAGAAAGCTGATC ((((((....)))))) the sequence record lists Tm as 43

For GGTAGCGGAAACACTACC (((((.(....).))))) the sequence record lists Tm as 44.8

For GATCTCCAACGAGATC ((((((....)))))) the sequence record lists Tm as 49.8
